- experimental_protocol: Quantitative High-Throughput drug screen in 47 multiple myeloma cell lines against the NCATS MIPE library collection: KMS12BM_JCRB cell viability assay (AID 1918971); also: nearly all actives have a fitted effect of over 35% in size
- test_context: KMS12BM myeloma viability, CellTiter-Glo ATP, 48 h; series mostly up to 45.8 µM
- From the text: PI: Beverly A. Mock Ph.D. Laboratory of Cancer Biology and Genetics, Center for Cancer Research, National Cancer Institute, National Institute of Health, Bethesda, Maryland […] 5; Detector; 425V; Luminescence; Viewlux PerkinElmer. […] 1. […] Briefly, the corresponding myeloma cell lines were screened in 1,536-well plates with 500 cells, 5-uL per well for inhibition of cell viability (assessed by measuring ATP levels with CellTiterGlo). […]
Inconclusive results are not listed. Calls of active or inactive are those of the source. Calls follow the shape of the dose curve; as a rule, active = well fitted cell-killing curve with a large enough effect; inconclusive = small, poorly fitted or top-dose-only effect, or effect the other way; inactive = no such curve, though single readings can be large or run the other way.
Allowed answers: active, inactive

For CC=C(C(=CC)c1ccc(O)cc1)c1ccc(O)cc1 , what call appears in the results of this test? active

What did the test return for COc1cc(Cl)cn2c(-c3cccc(NC4CNC4)n3)cnc12 ? active

What classification did CCC(C)SSc1ncc[nH]1 (stereo not drawn) end up with in this test? active

Outcome logged for COc1ccnc(CS(=O)c2nc3ccc(OC(F)F)cc3[nH]2)c1OC (stereo not drawn) in this assay: inactive

Check the results log: what was the call for C[C@@H]1[C@H](O)[C@@H](C)C=CC=CC=CC=CC=CC=CC=C[C@H](O[C@@H]2O[C@H](C)[C@H](O)[C@H](N)[C@@H]2O)C[C@@H]2O[C@](O)(C[C@@H](O)C[C@@H](O)[C@H](O)CC[C@@H](O)C[C@@H](O)CC(=O)O[C@H]1C)C[C@H](O)[C@@H]2C(=O)O ? active

I'd appreciate the recorded outcome for CN(C)CC[C@H](CSc1ccccc1)Nc1ccc(S(=O)(=O)NC(=O)c2ccc(N3CCN(Cc4ccccc4-c4ccc(Cl)cc4)CC3)cc2)cc1[N+](=O)[O-] from this test. active

Write down the call the test reported for this molecule. Item: C[C@@]1(c2cc(-c3cncnc3)c(F)cc2F)CCSC(N)=N1 inactive

Could you check what this test reported for c1ccc(-c2oc3ncnc(NC[C@@H]4CCCO4)c3c2-c2ccccc2)cc1 ? active
